- ASSAY OVERVIEW: qHTS assay to identify small molecule antagonists of the estrogen receptor alpha (ER-alpha) signaling pathway using the BG1 cell line (AID 743080);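 also: BG1 cells stimulated with 17beta-estradiol alongside compound; nearly all actives have a fitted effect of over 25% in size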
- CONDITION DESCRIPTION: BG1Luc4E2 ERE-luciferase antagonist mode, luminescence; series mostly up to 70.3 µM
Records with an inconclusive call do not appear. Active and inactive are the calls of the source. Calls follow the shape of the full dose curve.
Allowed answers: 1 (active), -1 (inactive)

## Input Recorded test call requested for C=CC(=O)[O][Sn]([CH2]CCC)([CH2]CCC)[CH2]CCC
## Output 1

## Input Recorded test call requested for CNC(=O)CSP(=O)(OC)OC
## Output -1

## Input Recorded test call requested for CNC(C)(C)Cc1ccccc1
## Output -1

----------
- TESTED ON: Thyrotropin receptor (Homo sapiens) (UniProt P16473)
- Sequence (P16473 whole entry, looked up): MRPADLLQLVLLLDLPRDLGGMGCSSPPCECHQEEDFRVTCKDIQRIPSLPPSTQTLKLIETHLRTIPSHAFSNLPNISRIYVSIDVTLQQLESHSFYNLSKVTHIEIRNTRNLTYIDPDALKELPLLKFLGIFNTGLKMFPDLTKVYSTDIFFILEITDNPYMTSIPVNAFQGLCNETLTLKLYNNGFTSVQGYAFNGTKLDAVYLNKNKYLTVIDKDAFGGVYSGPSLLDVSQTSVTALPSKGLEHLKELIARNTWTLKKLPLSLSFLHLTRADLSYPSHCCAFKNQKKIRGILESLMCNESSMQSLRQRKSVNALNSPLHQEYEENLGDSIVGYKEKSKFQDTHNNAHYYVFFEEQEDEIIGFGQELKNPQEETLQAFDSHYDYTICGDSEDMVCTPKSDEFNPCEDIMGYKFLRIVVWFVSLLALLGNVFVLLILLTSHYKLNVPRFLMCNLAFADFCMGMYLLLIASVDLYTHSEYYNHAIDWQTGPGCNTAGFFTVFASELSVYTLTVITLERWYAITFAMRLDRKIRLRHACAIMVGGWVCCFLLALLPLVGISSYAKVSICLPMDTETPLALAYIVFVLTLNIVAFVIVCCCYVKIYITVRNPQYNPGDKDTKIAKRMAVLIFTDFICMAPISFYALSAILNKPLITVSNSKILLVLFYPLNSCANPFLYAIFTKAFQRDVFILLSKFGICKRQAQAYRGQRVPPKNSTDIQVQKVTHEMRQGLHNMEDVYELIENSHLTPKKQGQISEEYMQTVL
- ASSAY OVERVIEW: qHTS assay to identify small molecule agonists of the thyroid stimulating hormone receptor (TSHR) signaling pathway (AID 1224843); also: nearly all actives have a fitted effect of over 45% in size
- CONDITION DESCRIPTION: TSHR-HEK293 cells, cAMP HTRF, agonist mode, 30 min; series mostly up to 92.4 µM
Inconclusive results are not listed. The source made the active and inactive calls. Calls follow the shape of the full dose curve.
Allowed answers: label 1 (active), label 0 (inactive)

Solved cases below.
O=C(O)CCCCCCNC1c2ccccc2CCc2ccccc21; label 0
BrCCCBr; label 0
O=c1c2ccccc2c(=O)c2c1cc(Cl)c1[nH]c3c([nH]c12)c(Cl)cc1c(=O)c2ccccc2c(=O)c13; label 0
N#CSCc1ccccc1; label 0
CCC(C)Br (stereo unspecified); label 0
CC(=O)C(Cl)C(=O)N(C)C (stereo unspecified); label 0
C[N+]1(C)[C@@H]2CC[C@H]1CC(OC(=O)C(CO)c1ccccc1)C2 (stereo partly specified); label 0
O=C(Cl)c1ccccc1F; label 0
COP(=S)(OC)Oc1nc(Cl)c(Cl)cc1Cl; label 0
C[C@]12CC[C@H]3[C@@H](CCC4=CC(=O)CC[C@@H]43)[C@@H]1CC[C@@H]2OC(=O)CCc1ccco1; label 0

## Input Recorded test call requested for COC(=O)C(C)N(C(=O)c1ccco1)c1c(C)cccc1C (stereo unspecified)
## Output label 0

## Input Recorded test call requested for O=C(N[C@@H]1N=C(c2ccccc2F)c2cccc3c2N(CC3)C1=O)c1cc2ccccc2[nH]1
## Output label 0

## Input Recorded test call requested for CCCCc1ccccc1
## Output label 0

----------
- TESTED ON: Aromatase (Homo sapiens) (UniProt P11511)
- Sequence (P11511 whole entry, looked up): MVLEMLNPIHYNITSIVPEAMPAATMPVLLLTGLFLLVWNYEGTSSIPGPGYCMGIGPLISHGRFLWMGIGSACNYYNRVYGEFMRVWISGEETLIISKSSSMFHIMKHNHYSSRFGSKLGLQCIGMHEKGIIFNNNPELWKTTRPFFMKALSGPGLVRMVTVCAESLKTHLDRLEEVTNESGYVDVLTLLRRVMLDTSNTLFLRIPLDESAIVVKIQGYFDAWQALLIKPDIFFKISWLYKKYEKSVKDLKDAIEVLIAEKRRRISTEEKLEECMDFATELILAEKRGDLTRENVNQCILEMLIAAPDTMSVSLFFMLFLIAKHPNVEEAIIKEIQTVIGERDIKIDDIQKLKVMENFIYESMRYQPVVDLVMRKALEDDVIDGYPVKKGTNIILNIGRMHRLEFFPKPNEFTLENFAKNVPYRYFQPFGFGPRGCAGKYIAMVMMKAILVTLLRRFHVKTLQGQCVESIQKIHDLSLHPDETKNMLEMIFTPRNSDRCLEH
- ASSAY OVERVIEW: qHTS assay to identify aromatase inhibitors (AID 743083); also: nearly all actives have a fitted effect of over 55% in size
- CONDITION DESCRIPTION: MCF-7 aro ERE, testosterone-driven ERE luciferase, 24 h; series mostly up to 70.3 µM
Inconclusive results are not listed. Calls of active or inactive are those of the source. Calls come from the whole dose curve; as a rule, active = well fitted inhibition curve with a large enough effect in the repeat runs; inconclusive = weak or mixed curves; inactive = no such curve, though single readings can be large or run the other way.
Allowed answers: active, inactive

Solved cases below.
CCO/N=C(\CC)C1=C(O)CC(c2c(C)cc(C)cc2C)CC1=O (configuration not stated); inactive
Brc1ccc(Oc2ccc(Br)cc2Br)c(Br)c1; inactive
COC(=O)c1ccccc1S(=O)(=O)NC(=O)Nc1nc(C)nc(OC)n1; inactive
C=Cc1cccc(CCl)c1; inactive
CC1CCCC1; inactive

## Input Recorded test call requested for OCC(Br)CBr (configuration not stated)
## Output inactive

## Input Recorded test call requested for C=CCOC(=O)c1ccccc1N
## Output inactive

## Input Recorded test call requested for CCCCc1ccccc1
## Output inactive

## Input Recorded test call requested for [O-][Cl+3]([O-])([O-])O
## Output inactive

## Input Recorded test call requested for FC(F)C(F)(F)OCC(Cn1cncn1)c1ccc(Cl)cc1Cl (configuration not stated)
## Output active

## Input Recorded test call requested for CCCCN(CCCC)C(=S)S
## Output inactive

## Input Recorded test call requested for N#Cc1ccc(N(CC(N)=O)CC(F)(F)F)cc1C(F)(F)F
## Output inactive

## Input Recorded test call requested for CC(=O)[O-].CC(=O)[O-].O.O.O.[Pb+2]
## Output inactive

## Input Recorded test call requested for CC(C)[C@@H](Nc1ccc(C(F)(F)F)cc1Cl)C(=O)OC(C#N)c1cccc(Oc2ccccc2)c1 (some centres not stated)
## Output inactive

## Input Recorded test call requested for Clc1ccc(C(Cl)(Cl)Cl)cc1Cl
## Output inactive

## Input Recorded test call requested for CC(Cl)CCl (configuration not stated)
## Output inactive

## Input Recorded test call requested for CCNS(=O)(=O)C(F)(F)C(F)(F)C(F)(F)C(F)(F)C(F)(F)C(F)(F)C(F)(F)C(F)(F)F
## Output inactive

## Input Recorded test call requested for CCOP(=S)(NC(C)C)Oc1ccccc1C(=O)OC(C)C (configuration not stated)
## Output active

## Input Recorded test call requested for CC(=O)[O][Pb]([c]1ccccc1)([c]1ccccc1)[c]1ccccc1
## Output active

## Input Recorded test call requested for O=[N+]([O-])[O-].[Tl+]
## Output active

## Input Recorded test call requested for O=[N+]([O-])c1ccc(Cl)c(Cl)c1Cl
## Output inactive

## Input Recorded test call requested for c1ccc(N=NNc2ccccc2)cc1
## Output inactive

## Input Recorded test call requested for CO/N=C(\C(=O)OC)c1ccccc1CO/N=C(\C)c1cccc(C(F)(F)F)c1
## Output active

## Input Recorded test call requested for CCNc1nc(NC(C)C(C)C)nc(SC)n1 (configuration not stated)
## Output inactive

## Input Recorded test call requested for CCCC[N+]1(C)CCCC1 (tested in a mixture with another compound)
## Output inactive
